Can you tell me B. signalgrass plant response rating for the items I'm about to list?
Tested on: surinam grass
Assay Comment: Test B pre/postemergence surinam grass
Type: in vivo, Brachiaria decumbens
Condition Label: Preemergence, Rate 500 g/ha; scale of 0 to 10 where 0 is no effect and 10 is complete control
One number for each entry.

# annotated cases, reported B. signalgrass plant response rating shown
1) CC(C)N(C(=O)n1oc(=O)n(CC2=NOCCC2)c1=O)c1ccc(F)cc1F | 7
2) CCC(C)n1c(=O)on(C(=O)N(c2ccccc2)C(C)C)c1=O (stereo not drawn) | 10
3) CCN(CC)C(=O)n1oc(=O)n(-c2ccccc2C)c1=O | 3

For each listed entry, give its B. signalgrass plant response rating.
1. CC(C)N(C(=O)n1oc(=O)n(C(C)C(=O)c2ccccc2)c1=O)c1ccccc1 (stereo not drawn)
2. CC(C)N(C(=O)n1oc(=O)n(C2CCCO2)c1=O)c1ccc(F)cc1 (stereo not drawn)
3. CC(C)N(C(=O)n1oc(=O)n(CCC(F)=C(F)F)c1=O)c1ccccc1
4. CC(C)N(C(=O)n1oc(=O)n(CCC2OCCO2)c1=O)c1ccccc1
5. CCC=CCn1c(=O)on(C(=O)N(c2ccc(Cl)cc2)C(C)C)c1=O
6. COC(=O)C(C)n1c(=O)on(C(=O)N(c2ccc(F)cc2)C(C)C)c1=O (stereo not drawn)

A:
1. 0
2. 0
3. 9
4. 9
5. 9
6. 1

----------
System: rape
Assay Comment: Test B pre/postemergence rape
Format: in vivo, Brassica napus
Condition Label: Preemergence, Rate 62 g/ha; scale of 0 to 10 where 0 is no effect and 10 is complete control
Measurement Name: Rape plant response rating

1) CC(C)N(C(=O)n1oc(=O)n(CC(C)(C)C)c1=O)c1ccc(F)cc1 [Compound 246] | 0
2) CC(C)N(C(=O)n1oc(=O)n(C(C)C)c1=O)c1ccc(Br)cc1 [Compound 691] | 0
3) CC(C)N(C(=O)n1oc(=O)n(C(C)C2=NOCC2)c1=O)c1ccc(F)cc1 (racemic) [Compound 721] | 1

Look up Rape plant response rating for the entries below, preserving their order.
1. CC(C)N(C(=O)n1oc(=O)n(Cc2ccco2)c1=O)c1ccc(Cl)cc1 [Compound 206]
2. C=C(Cn1c(=O)on(C(=O)N(c2ccc(F)cc2)C(C)C)c1=O)C(=O)OC [Compound 732]
3. CCN(C(=O)n1oc(=O)n(Cc2ccco2)c1=O)C1CCCCC1 [Compound 312]
4. CC(C)N(Cc1ccccc1)C(=O)n1oc(=O)n(C(C)C)c1=O [Compound 165]
5. CC(C)N(C(=O)n1oc(=O)n(N(C)C)c1=O)c1ccc(F)cc1 [Compound 170]

A:
1. 0
2. 0
3. 0
4. 0
5. 2

----------
Tested on: wheat
Assay Comment: Test B pre/postemergence wheat
Type: in vivo, Triticum aestivum
Condition Label: Postemergence, Rate 500 g/ha; scale of 0 to 10 where 0 is no effect and 10 is complete control
Measurement Name: Plant response rating, Wheat
Give bare numbers.

1) C=C(Cn1c(=O)on(C(=O)N(c2ccccc2)C(C)C)c1=O)c1ccc(F)cc1 [Compound 606] | 0
2) CCC(C)n1c(=O)on(C(=O)N(c2ccccc2)C(C)C)c1=O (centres unmarked) [Compound 612] | 5
3) CC(C)N(C(=O)n1oc(=O)n(CCC(F)=C(F)F)c1=O)c1ccccc1 [Compound 566] | 4

# batch: return Plant response rating, Wheat for each of the 2 molecules below
1. CC(C)N(C(=O)n1oc(=O)n(CC(=O)C(F)(F)F)c1=O)c1ccc(F)cc1F [Compound 598]
2. Cc1noc(C)c1Cn1c(=O)on(C(=O)N(c2ccccc2)C(C)C)c1=O [Compound 569]

A:
0
0
